# System: Streptococcus pneumoniae
# TEST_DETAILS: Minimum inhibitory concentration against Streptococcus pneumoniae
# Type: functional
Please provide measured MIC for the entries that follow.
A number alone suffices; assume µg/mL.

Noted for `O=C(COc1ccc([N+](=O)[O-])cc1)N[C@@H]1C(=O)N2C(C(=O)O)=C(Cl)CS[C@H]12` : its MIC reads 0.03

Noted for `Nc1n[nH]c(SCC(=O)N[C@@H]2C(=O)N3C(C(=O)O)=C(Cl)CS[C@H]23)n1` : its MIC reads 2

Noted for `O=C(COc1ccc(Cl)cc1)N[C@@H]1C(=O)N2C(C(=O)O)=C(Cl)CS[C@H]12` : its MIC reads 0.03

Noted for `O=C(Cc1csc2ccc(Cl)cc12)N[C@@H]1C(=O)N2C(C(=O)O)=C(Cl)CS[C@H]12` : its MIC reads 0.015

###

# Tested on: Streptococcus pneumoniae
# TEST_DETAILS: Minimum inhibitory concentration against Streptococcus pneumoniae
# Type: functional
PARAMETER: MIC (µg/mL)
A number alone suffices; assume µg/mL.

Noted for `C=CC1=C(C(=O)O)N2C(=O)[C@@H](NC(=O)Cc3csc4ccccc34)[C@H]2SC1` : its MIC reads 0.06

Noted for `O=C(Cc1noc(C(Cl)(Cl)Cl)n1)N[C@@H]1C(=O)N2C(C(=O)O)=CCS[C@H]12` : its MIC reads 2

Noted for `O=C(CSc1nccs1)N[C@@H]1C(=O)N2C(C(=O)O)=C(Cl)CS[C@H]12` : its MIC reads 0.5

###

# System: Streptococcus pneumoniae
# TEST_DETAILS: Efficacy against mouse infections caused by S. Pneumoniae measured as Minimum inhibitory concentration
PARAMETER: log10 of MIC (log10 of the value in µg/mL)
The base-10 logarithm of MIC, taken with MIC in µg/mL, is what appears here.

Noted for `C=CC1=C(C(=O)O)N2C(=O)[C@@H](NC(=O)Cc3csc4ccccc34)[C@H]2SC1` : its log10 of MIC reads -1.52

Noted for `O=C(Cc1csc2ccccc12)N[C@@H]1C(=O)N2C(C(=O)O)=CCS[C@H]12` : its log10 of MIC reads -0.60

Noted for `Nc1nc(CC(=O)N[C@@H]2C(=O)N3C(C(=O)O)=C(Cl)CS[C@H]23)cs1` : its log10 of MIC reads -0.30

Noted for `O=C(CSc1cc(Cl)ccc1Cl)N[C@@H]1C(=O)N2C(C(=O)O)=C(Cl)CS[C@H]12` : its log10 of MIC reads -1.82

Noted for `Nc1nc2cc(CC(=O)N[C@@H]3C(=O)N4C(C(=O)O)=C(Cl)CS[C@H]34)ccc2s1` : its log10 of MIC reads -1.22

###

# Tested on: Streptococcus pneumoniae
# TEST_DETAILS: Minimum inhibitory concentration against Streptococcus pneumoniae
# Assay type: functional
Please provide measured MIC for the entries that follow.

Reported MIC (Streptococcus pneumoniae) for entry `COC1=C(C(=O)O)N2C(=O)[C@@H](NC(=O)Cc3noc(C(Cl)(Cl)Cl)n3)[C@H]2SC1` is 4 µg/mL

Reported MIC (Streptococcus pneumoniae) for entry `CC1=C(C(=O)O)N2C(=O)[C@@H](NC(=O)Cc3csc4ccccc34)[C@H]2SC1` is 1 µg/mL

Reported MIC (Streptococcus pneumoniae) for entry `O=C(CSc1cc(Cl)ccc1Cl)N[C@@H]1C(=O)N2C(C(=O)O)=C(Cl)CS[C@H]12` is < 0.008 µg/mL

Reported MIC (Streptococcus pneumoniae) for entry `O=C(COc1ccccc1)N[C@@H]1C(=O)N2C(C(=O)O)=C(Cl)CS[C@H]12` is 0.125 µg/mL

Reported MIC (Streptococcus pneumoniae) for entry `O=Cc1ccc(OCC(=O)N[C@@H]2C(=O)N3C(C(=O)O)=C(Cl)CS[C@H]23)cc1` is 0.03 µg/mL

###

Please provide measured MIC for the entries that follow.
# Test system: Haemophilus influenzae
# TEST_DETAILS: Minimum inhibitory concentration against Haemophilus influenzae
# Format: functional
A number alone suffices; assume µg/mL.

Reported MIC (Haemophilus influenzae) for entry `Nc1nc2cc(CC(=O)N[C@@H]3C(=O)N4C(C(=O)O)=C(Cl)CS[C@H]34)ccc2s1` is 0.5

Reported MIC (Haemophilus influenzae) for entry `Cc1nc(CC(=O)N[C@@H]2C(=O)N3C(C(=O)O)=C(Cl)CS[C@H]23)c(-c2ccccc2)s1` is 32

Reported MIC (Haemophilus influenzae) for entry `O=Cc1ccc(OCC(=O)N[C@@H]2C(=O)N3C(C(=O)O)=C(Cl)CS[C@H]23)cc1` is 1

Reported MIC (Haemophilus influenzae) for entry `Nc1n[nH]c(SCC(=O)N[C@@H]2C(=O)N3C(C(=O)O)=C(Cl)CS[C@H]23)n1` is 2

Reported MIC (Haemophilus influenzae) for entry `O=C(Cc1noc(C(Cl)(Cl)Cl)n1)N[C@@H]1C(=O)N2C(C(=O)O)=CCS[C@H]12` is 16

Reported MIC (Haemophilus influenzae) for entry `COC1=C(C(=O)O)N2C(=O)[C@@H](NC(=O)Cc3csc4ccccc34)[C@H]2SC1` is 0.5

Reported MIC (Haemophilus influenzae) for entry `COc1ccc(CC(=O)N[C@@H]2C(=O)N3C(C(=O)O)=C(Cl)CS[C@H]23)cc1OC` is 0.5

Reported MIC (Haemophilus influenzae) for entry `O=C(Cc1ccc(Cl)cc1)N[C@@H]1C(=O)N2C(C(=O)O)=C(Cl)CS[C@H]12` is 0.5

Reported MIC (Haemophilus influenzae) for entry `COc1ccc(OCC(=O)N[C@@H]2C(=O)N3C(C(=O)O)=C(Cl)CS[C@H]23)cc1` is 2

###

# System: Staphylococcus aureus
# TEST_DETAILS: Efficacy against mouse infections caused by Staphylococcus aureus measured as Minimum inhibitory concentration
PARAMETER: MIC (µg/mL)
A number alone suffices; assume µg/mL.

Noted for `Nc1nc2cc(CC(=O)N[C@@H]3C(=O)N4C(C(=O)O)=C(Cl)CS[C@H]34)ccc2s1` : its MIC reads 0.25

Noted for `C=CC1=C(C(=O)O)N2C(=O)[C@@H](NC(=O)Cc3csc4ccccc34)[C@H]2SC1` : its MIC reads 0.125

Noted for `O=C(Cc1csc2ccccc12)N[C@@H]1C(=O)N2C(C(=O)O)=CCS[C@H]12` : its MIC reads 0.25

Noted for `O=C(CSc1cc(Cl)ccc1Cl)N[C@@H]1C(=O)N2C(C(=O)O)=C(Cl)CS[C@H]12` : its MIC reads 0.03

###

# Tested on: Haemophilus influenzae
# TEST_DETAILS: Minimum inhibitory concentration against Haemophilus influenzae
# Format: functional
PARAMETER: MIC (µg/mL)
A number alone suffices; assume µg/mL.

Noted for `O=C(Cc1csc2ccccc12)N[C@@H]1C(=O)N2C(C(=O)O)=CCS[C@H]12` : its MIC reads 0.5

Noted for `Nc1ccc(CC(=O)N[C@@H]2C(=O)N3C(C(=O)O)=C(Cl)CS[C@H]23)cc1` : its MIC reads 0.5

Noted for `O=C(CSc1nc[nH]n1)N[C@@H]1C(=O)N2C(C(=O)O)=C(Cl)CS[C@H]12` : its MIC reads 4

Noted for `O=C(COc1ccc([N+](=O)[O-])cc1)N[C@@H]1C(=O)N2C(C(=O)O)=C(Cl)CS[C@H]12` : its MIC reads 1

Noted for `O=C(Cc1noc(C(Cl)(Cl)Cl)n1)N[C@@H]1C(=O)N2C(C(=O)O)=C(Cl)CS[C@H]12` : its MIC reads 4

###

Please provide measured MIC for the entries that follow.
# System: Haemophilus influenzae
# TEST_DETAILS: Minimum inhibitory concentration against Haemophilus influenzae
# Format: functional
A number alone suffices; assume mg/L.

Noted for `C=CC1=C(C(=O)O)N2C(=O)[C@@H](NC(=O)Cc3csc4ccccc34)[C@H]2SC1` : its MIC reads 4

Noted for `COc1ccccc1CC(=O)N[C@@H]1C(=O)N2C(C(=O)O)=C(Cl)CS[C@H]12` : its MIC reads 1

Noted for `COC1=C(C(=O)O)N2C(=O)[C@@H](NC(=O)Cc3noc(C(Cl)(Cl)Cl)n3)[C@H]2SC1` : its MIC reads 32

Noted for `O=C(CSc1cc(Cl)ccc1Cl)N[C@@H]1C(=O)N2C(C(=O)O)=C(Cl)CS[C@H]12` : its MIC reads 1

Noted for `CO/N=C/c1ccc(OCC(=O)N[C@@H]2C(=O)N3C(C(=O)O)=C(Cl)CS[C@H]23)cc1` : its MIC reads 1

###

# Tested on: Escherichia coli
# TEST_DETAILS: Minimum inhibitory concentration against Escherichia coli
# Format: functional
PARAMETER: MIC (µg/mL)
A number alone suffices; assume µg/mL.

Noted for `O=C(Cc1ccc(Cl)cc1)N[C@@H]1C(=O)N2C(C(=O)O)=C(Cl)CS[C@H]12` : its MIC reads 64

Noted for `Nc1nc2cc(CC(=O)N[C@@H]3C(=O)N4C(C(=O)O)=C(Cl)CS[C@H]34)ccc2s1` : its MIC reads 64

Noted for `O=C(Cc1csc2ccccc12)N[C@@H]1C(=O)N2C(C(=O)O)=CCS[C@H]12` : its MIC reads 64

Noted for `O=C(CSc1cc(Cl)ccc1Cl)N[C@@H]1C(=O)N2C(C(=O)O)=C(Cl)CS[C@H]12` : its MIC reads 32

Noted for `O=C(Cc1noc(C(Cl)(Cl)Cl)n1)N[C@@H]1C(=O)N2C(C(=O)O)=C(Cl)CS[C@H]12` : its MIC reads 64

Noted for `Nc1ccc(CC(=O)N[C@@H]2C(=O)N3C(C(=O)O)=C(Cl)CS[C@H]23)cc1` : its MIC reads 16

Noted for `COc1ccc(CC(=O)N[C@@H]2C(=O)N3C(C(=O)O)=C(Cl)CS[C@H]23)cc1OC` : its MIC reads 128

Noted for `O=C(Cc1noc(C(Cl)(Cl)Cl)n1)N[C@@H]1C(=O)N2C(C(=O)O)=CCS[C@H]12` : its MIC reads 32

Noted for `COc1ccc(CC(=O)N[C@@H]2C(=O)N3C(C(=O)O)=C(Cl)CS[C@H]23)cc1` : its MIC reads 64

Noted for `O=C(CSc1nc[nH]n1)N[C@@H]1C(=O)N2C(C(=O)O)=C(Cl)CS[C@H]12` : its MIC reads 16
